In this section we review reported Insulin values for a set of molecules.
- Test system: human pancreatic β-cells
- experimental_protocol: Insulin secretion from human islet β cells (ELISA of supernatant)
- Type: cell-based
- condition_label: 2 nM, 6 h

molecule: CCCCCCCCCCCCCCCCCC(=O)OCC(N)C(=O)O (stereo not drawn) [Ser-stearic acid]
Insulin / ng/mL: 0.28

molecule: CCCCCCCCCC(=O)NCCCCC(N)C(=O)O (stereo not drawn) [Lys-n-decanoic acid]
Insulin / ng/mL: 0.45

molecule: CCCCCCCCCCCCCCCCCCCC(=O)OC(C)C(N)C(=O)O (stereo not drawn) [Thr-arachidic acid]
Insulin / ng/mL: 0.32

molecule: CCCCCC(=O)OC(C)C(N)C(=O)O (stereo not drawn) [Thr-n-hexanoic acid]
Insulin / ng/mL: 0.38

molecule: NC(CCCCNC(=O)CCCCCCCCCCCCCCCCCCC(=O)O)C(=O)O (stereo not drawn) [Lys-eicosanedioic acid]
Insulin / ng/mL: 0.34

molecule: CCCC(=O)OCC(N)C(=O)O (stereo not drawn) [Ser-n-butyric acid]
Insulin / ng/mL: 0.41
